Recorded measurements of URIC ACID, one per entry
Organism: Rattus norvegicus
Assay: DrugMatrix - Regimen: Daily Repeat
Format: toxicity, organism-based, Sprague-Dawley
Set-up: regimen Daily Repeat, gender Male, age 6-8 weeks
Settings: in vivo, po, 0 mg/kg, 72 h, tissue Plasma, route oral GAVAGE, dose level Control, time 3 day, vehicle .5 % CMC
Metric: URIC ACID (mg/dL)

Cc1cc2c(s1)Nc1ccccc1N=C2N1CCN(C)CC1 [OLANZAPINE]
1.48
NCC(CC(=O)O)c1ccc(Cl)cc1 (stereo unspecified) [BACLOFEN]
1.8
CCN1CCCC1CNC(=O)c1cc(S(N)(=O)=O)ccc1OC (stereo unspecified) [SULPIRIDE]
1.55
NC(=O)NC(=O)Cc1ccccc1 [PHENACEMIDE]
1.42
CC(=O)Nc1ccc2c(c1)Cc1ccccc1-2 [2-ACETYLAMINOFLUORENE]
1.8
O=C(O)CCc1nc(-c2ccccc2)c(-c2ccccc2)o1 [OXAPROZIN]
1.55
CC(C)(C#N)c1cc(Cn2cncn2)cc(C(C)(C)C#N)c1 [ANASTROZOLE]
1.72
CCOc1cc(N)c(Cl)cc1C(=O)NCC1CN(Cc2ccc(F)cc2)CCO1 (stereo unspecified) [MOSAPRIDE]
1.8
CN(C)CCOC(c1ccccc1)c1ccccc1.Cn1c(=O)c2[nH]c(Cl)nc2n(C)c1=O [DIMENHYDRINATE]
1.3
Cl.NC[C@H]1CC[C@H](C(=O)Oc2ccc(CCC(=O)O)cc2)CC1 [CETRAXATE HYDROCHLORIDE]
1.5
NC(=O)CN1CCCC1=O
1.28

====

Species on record: Rattus norvegicus
Experiment: DrugMatrix - Regimen: Daily Repeat
Format: toxicity, organism-based, Sprague-Dawley
Design: regimen Daily Repeat, gender Male, age 6-8 weeks
Details: in vivo, po, 0 mg/kg, 120 h, tissue Plasma, route oral GAVAGE, dose level Control, time 5 day, […]
Recorded measurements of CREATININE, one per entry
Metric: CREATININE (mg/dL)

CO[C@H]1O[C@@H]2O[C@@]3(C)CC[C@H]4[C@H](C)CC[C@@H]([C@H]1C)[C@@]24OO3
0.2
COC(=O)Nc1nc2ccc(C(=O)c3ccccc3)cc2[nH]1
0.2
COc1ccccc1OCCNCC(O)COc1cccc2[nH]c3ccccc3c12 (centres undefined)
0.2
CCOC(=O)C1=C(C)NC(C)=C(C(=O)OCC)C1c1ccccc1/C=C/C(=O)OC(C)(C)C
0.17

====

Organism: Rattus norvegicus
Assay: DrugMatrix - Regimen: Daily Repeat
Type: toxicity, organism-based, Sprague-Dawley
Parameters: regimen Daily Repeat, gender Male, age 6-8 weeks
Conditions: in vivo, po, 0 mg/kg, 72 h, tissue Plasma, route oral GAVAGE, dose level Control, time 3 day, vehicle .5 % CMC
Recorded measurements of POTASSIUM, one per entry
Metric: POTASSIUM (MEQ/L)

CC(C)Cc1ccc([C@H](C)C(=O)O)cc1
7.03
NC(=O)CN1CCCC1=O
6.21
COc1cc(NC(C)CCCN)c2ncccc2c1 (centres undefined)
6.8
CCN1C[C@]2(COC)[C@H](O)C[C@H](OC)[C@@]34[C@@H]5C[C@@]6(O)[C@H](OC(=O)c7ccccc7)[C@@H]5[C@@](OC(C)=O)([C@@H]([C@H](OC)[C@H]23)[C@@H]14)[C@@H](O)[C@@H]6OC
7
CCN1CCN(c2cc3c(cc2F)c(=O)c(C(=O)O)cn3C2CC2)CC1
6.9
CC(C)(C#N)c1cc(Cn2cncn2)cc(C(C)(C)C#N)c1
6.91
CN(C)CCC=C1c2ccccc2COc2ccccc21 [DOXEPIN]
6.78
CC(=O)Nc1ccc2c(c1)Cc1ccccc1-2
6.37
Nc1ccc(C(=O)O)c(O)c1
6.23

====

Species on record: Rattus norvegicus
Test: DrugMatrix - Regimen: Daily Repeat
Format: toxicity, organism-based, Sprague-Dawley
Design: regimen Daily Repeat, gender Male, age 6-8 weeks
Settings: in vivo, po, 0 mg/kg, 120 h, tissue Plasma, route oral GAVAGE, dose level Control, time 5 day, vehicle .5 % CMC
Metric: TOTAL BILIRUBIN (mg/dL)

CN(C)CCOC(c1ccccc1)c1ccccc1.Cn1c(=O)c2[nH]c(Cl)nc2n(C)c1=O [DIMENHYDRINATE]
0.18
NC(=O)CN1CCCC1=O
0.2
CC(C)Cc1ccc([C@H](C)C(=O)O)cc1
0.53
NCC(CC(=O)O)c1ccc(Cl)cc1 (stereo not given)
0.2
COc1ccc(Cl)cc1C(=O)NCCc1ccc(S(=O)(=O)NC(=O)NC2CCCCC2)cc1 [GLYBURIDE]
0.55

====

Organism: Rattus norvegicus
Test: DrugMatrix - Regimen: Daily Repeat
Type: toxicity, organism-based, Sprague-Dawley
Set-up: regimen Daily Repeat, gender Male, age 6-8 weeks
Details: in vivo, po, 0 mg/kg, 120 h, tissue Blood, route oral GAVAGE, dose level Control, time 5 day, […]
Metric: ABSOLUTE EOSINOPHIL (CELLS/uL)

CS(=O)(=O)c1ccc(C2=C(c3ccccc3)C(=O)OC2)cc1 [ROFECOXIB]
0
Oc1ncnc2[nH]ncc12 [ALLOPURINOL]
58.67
O=C(Nc1ccc(Cl)c(Cl)c1)c1cc(Cl)cc(Cl)c1O [3,3',4',5-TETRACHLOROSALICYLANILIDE]
64.33
O=C(O)COC(=O)Cc1ccccc1Nc1c(Cl)cccc1Cl [ACECLOFENAC]
0
COC(=O)Nc1nc2ccc(C(=O)c3ccccc3)cc2[nH]1 [MEBENDAZOLE]
0
CC(C)(c1ccc(O)cc1)c1ccc(O)cc1 [BISPHENOL A]
14.67
COc1ccccc1OCCNCC(O)COc1cccc2[nH]c3ccccc3c12 (stereo not given) [CARVEDILOL]
0
CCC(C)(C)C(=O)O[C@H]1C[C@@H](C)C=C2C=C[C@H](C)[C@H](CC[C@@H]3C[C@@H](O)CC(=O)O3)[C@H]21 [SIMVASTATIN]
37.5
CCOC(=O)C1=C(C)NC(C)=C(C(=O)OCC)C1c1ccccc1/C=C/C(=O)OC(C)(C)C [LACIDIPINE]
20.67
Cc1cccc(C)c1NC(=O)C(C)N (stereo not given) [TOCAINIDE]
0

====

Recorded measurements of NUCLEATED RED BLOOD CELLS, one per entry
Species: Rattus norvegicus
Assay: DrugMatrix - Regimen: Daily Repeat
Format: toxicity, organism-based, Sprague-Dawley
Set-up: regimen Daily Repeat, gender Male, age 6-8 weeks
Conditions: in vivo, po, 0 mg/kg, 120 h, tissue Blood, route oral GAVAGE, dose level Control, time 5 day, vehicle .5 % CMC
Metric: NUCLEATED RED BLOOD CELLS

Cl.NC[C@H]1CC[C@H](C(=O)Oc2ccc(CCC(=O)O)cc2)CC1 [CETRAXATE HYDROCHLORIDE]
0.17 /100WBC
NCC(CC(=O)O)c1ccc(Cl)cc1 (configuration not stated)
0 /100WBC
CCOc1cc(N)c(Cl)cc1C(=O)NCC1CN(Cc2ccc(F)cc2)CCO1 (configuration not stated) [MOSAPRIDE]
0 /100WBC
CC(C)(C#N)c1cc(Cn2cncn2)cc(C(C)(C)C#N)c1
0 /100WBC
CC(=O)Nc1ccc2c(c1)Cc1ccccc1-2
0 /100WBC
O=C(O)CCc1nc(-c2ccccc2)c(-c2ccccc2)o1
0.33 /100WBC
CCN1CCCC1CNC(=O)c1cc(S(N)(=O)=O)ccc1OC (configuration not stated) [SULPIRIDE]
0.33 /100WBC
NC(=O)NC(=O)Cc1ccccc1 [PHENACEMIDE]
0 /100WBC
CN(C)CCOC(c1ccccc1)c1ccccc1.Cn1c(=O)c2[nH]c(Cl)nc2n(C)c1=O [DIMENHYDRINATE]
0.33 /100WBC
COc1cc(/C=C/C(=O)O)ccc1O [FERULATE]
0.17 /100WBC
Cc1cc2c(s1)Nc1ccccc1N=C2N1CCN(C)CC1
0.17 /100WBC
NC(=O)CN1CCCC1=O
0 /100WBC

====

Recorded measurements of CHLORIDE, one per entry
Organism: Rattus norvegicus
Assay: DrugMatrix - Regimen: Daily Repeat
Format: toxicity, organism-based, Sprague-Dawley
Parameters: regimen Daily Repeat, gender Male, age 6-8 weeks
Conditions: in vivo, po, 0 mg/kg, 120 h, tissue Plasma, route oral GAVAGE, dose level Control, time 5 day, vehicle .5 % CMC
Metric: CHLORIDE

CCN1C[C@]2(COC)[C@H](O)C[C@H](OC)[C@@]34[C@@H]5C[C@@]6(O)[C@H](OC(=O)c7ccccc7)[C@@H]5[C@@](OC(C)=O)([C@@H]([C@H](OC)[C@H]23)[C@@H]14)[C@@H](O)[C@@H]6OC
107.67 MEQ/L
CCN(CC)CCNC(=O)c1cc(Cl)c(N)cc1OC [METOCLOPRAMIDE]
108.17 MEQ/L
Cl.NC[C@H]1CC[C@H](C(=O)Oc2ccc(CCC(=O)O)cc2)CC1 [CETRAXATE HYDROCHLORIDE]
103.5 MEQ/L
CCOc1cc(N)c(Cl)cc1C(=O)NCC1CN(Cc2ccc(F)cc2)CCO1 (stereo not given) [MOSAPRIDE]
101 MEQ/L
CC(C)Cc1ccc([C@H](C)C(=O)O)cc1
103.17 MEQ/L
COc1cc(/C=C/C(=O)O)ccc1O [FERULATE]
103.5 MEQ/L
NC(=O)CN1CCCC1=O
101.5 MEQ/L
Nc1ccc(C(=O)O)c(O)c1
100.67 MEQ/L
CCN1CCN(c2cc3c(cc2F)c(=O)c(C(=O)O)cn3C2CC2)CC1
108.17 MEQ/L
Cc1cc2c(s1)Nc1ccccc1N=C2N1CCN(C)CC1
98 MEQ/L
NC(=O)NC(=O)Cc1ccccc1 [PHENACEMIDE]
102.17 MEQ/L
O=C(O)CCc1nc(-c2ccccc2)c(-c2ccccc2)o1
99 MEQ/L
CN(C)CCOC(c1ccccc1)c1ccccc1.Cn1c(=O)c2[nH]c(Cl)nc2n(C)c1=O [DIMENHYDRINATE]
102.33 MEQ/L
CC(=O)Nc1ccc2c(c1)Cc1ccccc1-2
101 MEQ/L
CCN1CCCC1CNC(=O)c1cc(S(N)(=O)=O)ccc1OC (stereo not given) [SULPIRIDE]
99 MEQ/L
CC(C)NCC(O)COc1ccc(CC(N)=O)cc1 (stereo not given)
105.67 MEQ/L
COc1ccc(Cl)cc1C(=O)NCCc1ccc(S(=O)(=O)NC(=O)NC2CCCCC2)cc1 [GLYBURIDE]
100.67 MEQ/L
CC(C)(C#N)c1cc(Cn2cncn2)cc(C(C)(C)C#N)c1
100.67 MEQ/L
O=C1c2ccccc2C(=O)C1c1ccccc1
107.67 MEQ/L
NCC(CC(=O)O)c1ccc(Cl)cc1 (stereo not given)
101 MEQ/L
